# maps each entry to its IC50 normalized to CM-10
Molecular target: T1, recombinant human CEACAM-1 (R&D Systems cat. no. 2244-CM-050) (human, UniProt P13688 35-428)
T1 construct: Coated on the ELISA plate at 0.5 ug/ml
T1 sequence (looked up): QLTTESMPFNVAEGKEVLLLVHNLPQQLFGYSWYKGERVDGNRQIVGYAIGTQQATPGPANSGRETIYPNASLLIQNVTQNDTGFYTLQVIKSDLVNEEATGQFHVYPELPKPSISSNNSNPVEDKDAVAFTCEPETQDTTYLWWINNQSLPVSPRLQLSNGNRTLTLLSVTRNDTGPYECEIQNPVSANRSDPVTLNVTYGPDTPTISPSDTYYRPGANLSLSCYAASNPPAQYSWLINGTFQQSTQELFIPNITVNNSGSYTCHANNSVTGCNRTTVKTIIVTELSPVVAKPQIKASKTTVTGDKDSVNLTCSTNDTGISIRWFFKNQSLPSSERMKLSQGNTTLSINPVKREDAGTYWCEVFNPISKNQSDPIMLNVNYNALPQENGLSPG
Test: competition ELISA on coated recombinant human CEACAM-1; competitor biotinylated chimeric CM-10 IgG1

Examples with their reported IC50 normalized to CM-10 follow.
humanized anti-CEACAM-1 variant VH2/VK3, IgG1 (antibody, V domains shown, Tested as human IgG1 / kappa antibody; only the variable regions are tied to this variant) VH: QVQLVQSGAEVKKPGASVKVSCKASGYAFTNNLIEWVKQAPGQGLEWIGVINPGSGDTNYNEKFKGRATLTADKSINTAYMELSRLRSDDTAVYFCARGDYYGGFAVDYWGQGTTVTVSS VL: DIQMTQSPSSLSASVGDRVTITCRTSQDIGNYLNWYQQKPGKAVKLLIYYTSRLHSGVPSRFSGSGSGTDYTFTISSLQPEDIATYFCQQGKSLPRTFGGGTKVEIK
1.21 ratio to IC50 of chimeric CM-10
humanized anti-CEACAM-1 variant VH5/VK2, IgG4 (S241P) (antibody, V domains shown, Tested as human IgG4 (S241P) / kappa antibody; only the variable regions are tied to this variant) VH: QVQLVQSGAEVKKPGASVKVSCKASGYAFTNNLIEWVRQAPGQGLEWIGVINPGSGDTNYNEKFKGRVTMTADKSISTAYMELSRLRSDDTAVYYCARGDYYGGFAVDYWGQGTTVTVSS VL: DIQMTQSPSSLSASVGDRVTITCRTSQDIGNYLNWYQQKPGKAVKLLIYYTSRLHSGVPSRFSGSGSGTDYTLTISSLQPEDIATYFCQQGKSLPRTFGGGTKVEIK
1.16 ratio to IC50 of chimeric CM-10
humanized anti-CEACAM-1 variant VH4/VK2, IgG4 (S241P) (antibody, V domains shown, Tested as human IgG4 (S241P) / kappa antibody; only the variable regions are tied to this variant) VH: QVQLVQSGAEVKKPGASVKVSCKASGYAFTNNLIEWVRQAPGQGLEWIGVINPGSGDTNYNEKFKGRATLTADKSISTAYMELSRLRSDDTAVYYCARGDYYGGFAVDYWGQGTTVTVSS VL: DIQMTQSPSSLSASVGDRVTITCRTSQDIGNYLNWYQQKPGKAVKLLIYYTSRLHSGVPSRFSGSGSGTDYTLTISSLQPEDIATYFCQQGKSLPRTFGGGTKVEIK
1.17 ratio to IC50 of chimeric CM-10
humanized anti-CEACAM-1 variant VH2/VK2, IgG4 (S241P) (antibody, V domains shown, Tested as human IgG4 (S241P) / kappa antibody; only the variable regions are tied to this variant) VH: QVQLVQSGAEVKKPGASVKVSCKASGYAFTNNLIEWVKQAPGQGLEWIGVINPGSGDTNYNEKFKGRATLTADKSINTAYMELSRLRSDDTAVYFCARGDYYGGFAVDYWGQGTTVTVSS VL: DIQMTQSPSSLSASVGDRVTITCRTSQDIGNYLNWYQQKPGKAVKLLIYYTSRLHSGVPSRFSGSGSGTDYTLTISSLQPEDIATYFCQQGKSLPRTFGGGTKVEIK
1.26 ratio to IC50 of chimeric CM-10

Let's switch to this binder now.
Incoming: IC50 normalized to CM-10 for humanized anti-CEACAM-1 variant VH5/VK1, IgG4 (S241P) (antibody, V domains shown, Tested as human IgG4 (S241P) / kappa antibody; only the variable regions are tied to this variant) VH: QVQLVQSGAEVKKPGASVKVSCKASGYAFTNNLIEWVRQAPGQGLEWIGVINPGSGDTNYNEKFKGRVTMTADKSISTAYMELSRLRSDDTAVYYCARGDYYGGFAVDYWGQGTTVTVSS VL: DIQMTQSPSSLSASVGDRVTITCRTSQDIGNYLNWYQQKPGKAVKLLIYYTSRLHSGVPSRFSGSGSGTDYTLTISSLQQEDIATYFCQQGKSLPRTFGGGTKVEIK ?
Outgoing: 1.23 ratio to IC50 of chimeric CM-10

This collection of values is drawn from patent US20240092934A1.
